System: COLO 205 colon
Experiment: NCI-60 one-dose screen, 48 h
Details: 10 µM unless noted
Compounds without any hit were thinned out: in the full panel of roughly 83,000, 20% have a hit. The source made the active and inactive calls. The calls were made as follows: active = growth percent below 10; inactive = the rest.
// allowed return values: 1 = active, 0 = inactive

# count of solved cases: 5
Oc1c(C(c2ccc(F)cc2)N2CCCCC2)ccc2cncnc12 (stereo not given) = 1
C/C(=N\NC(=S)Nc1ccccc1)c1ccccn1 = 0
COc1ccc2[nH]c(O)c(/C=c3/ccc4c(c3)N=C(c3ccc(C(F)(F)F)cc3)N=4)c2c1 = 0
CCOC(=O)c1ccc(N(CCC(=O)O)C(C)=O)cc1 = 0
COc1ccc(NC(=O)C2c3ccccc3C(=O)N(CC(C)C)C2c2cccs2)cc1 (stereo not given) = 0

Query: What outcome does the record of this test show for `Cn1nc(C(F)(F)F)cc1-c1cc(Cl)c(OCc2ccc(Cl)cc2)c(-c2ccc(Cl)c(C(F)(F)F)c2)c1O` ?
Result: 1

Query: What outcome does the record of this test show for `Cn1c(=O)c2[nH]c(Cc3ccc4c(c3)OCO4)nc2n(C)c1=O` ?
Result: 0
